assay: qHTS for Inhibitors of Plasmodium falciparum (7G8) proliferation (AID 504316); note: nearly all actives have a fitted effect of over 65% in size; details: P. falciparum 7G8 in erythrocytes, SYBR Green DNA, 72 h; series mostly up to 6.7 µM
Inconclusive results are not listed. Active and inactive are the calls of the source. Calls come from the whole dose curve; as a rule, active = well fitted inhibition curve with a large enough effect; inconclusive = small, poorly fitted or top-dose-only effect; inactive = flat fitted curve, though single readings scatter.
Return exactly one item of active, inactive

Please review the following examples before continuing.
CCOC(=O)NN=C1C[C@@H](O)[C@@H](O)[C@@H]2[C@H]3C(=O)N(c4ccc(F)cc4F)C(=O)[C@@H]3CC[C@H]12	inactive
C=CCN=C1NC(CCc2ccccc2)C(C(=O)OC)=C(C)N1CC (configuration not stated)	inactive
COC(=O)CCC(=O)OC1(C)C(=O)C=C2C=C(C3CC3)N(Cc3ccco3)C=C2C1=O (configuration not stated)	inactive
C=CCN1C(=O)C2(CC(C)=C[C@@H](C)O2)c2c(Br)cccc21 (some centres not stated)	inactive
COC(=O)CC1=CO[C@@H](O)[C@@H]2C(CO)=CC[C@@H]12	inactive

Exam item: For `COC(=O)[C@@]1(Cc2ccccc2-c2ccco2)C=C[C@H](C)[C@@H](c2ccccc2)N1C(=O)C(F)(F)F` , which call appears in the assay record?
Marked response: inactive

Exam item: Moving on to `C#CCCOC(=O)N1C2=NC(C(=O)OC)=C(C(=O)OC)[C@@H]3N(CC=C)c4ccccc4[C@]23C[C@H]1C(=O)OC`
Marked response: inactive

Exam item: Moving on to `CCC(=O)C[C@@H](NC(=O)OC)c1ccccc1`
Marked response: inactive

Exam item: Moving on to `CC(=O)[C@H]1[C@H](CCc2ccccc2)NC(=O)N(Cc2ccccc2)[C@@H]1C`
Marked response: inactive

Exam item: Moving on to CCCCC1=CC2=C(c3ccco3)C(=O)C(C)(OC(=O)c3ccc(OC)cc3)C(=O)C2=CN1CCc1ccccn1 (configuration not stated)
Marked response: inactive

* * *

molecular target: Glutathione peroxidase 1 (Homo sapiens); assay: Primary qHTS Assay for Inhibitors of Recombinant Selenoprotein Glutathione Peroxidase 1 (GPX1) (AID 1845191); conditions: recombinant GPX1, GR-coupled NADPH fluorescence, 15 min; series mostly up to 48.8 µM; note: nearly all actives have a fitted effect of over 65% in size
Records with an inconclusive call do not appear. Activity calls are given as the source filed them. The call rests on the fitted dose curve; in most records, active means well fitted inhibition curve with a large enough effect; inconclusive means small, poorly fitted or top-dose-only effect; inactive means flat fitted curve, though single readings scatter.
Return exactly one item of True (active), False (inactive)

CC(C)(C)c1ccc(CNC(=S)NCc2ccc(NS(C)(=O)=O)c(F)c2)cc1	True
COc1cc(F)ccc1-c1ncnc(Nc2cccc(CS(C)(=N)=O)c2)n1 (centres undefined)	False
CC(=O)C1CCC2C3CCC4=CC(=O)CCC4(C)C3CCC12C (centres undefined)	False
O=C(Nc1cccc(Nc2cc(Nc3cccc(C(F)(F)F)c3)ncn2)c1)C1CC1	False
OC(CNCCc1c[nH]c2ccccc12)Cn1c2ccccc2c2ccccc21 (centres undefined)	False
C[S+](CC[C@H](N)C(=O)O)C[C@H]1O[C@@H](n2cnc3c(N)ncnc32)[C@H](O)[C@H]1O (some centres undefined)	False
C=C1C(=O)O[C@@H]2C[C@@]3(C)CCC[C@H](C)C3=C[C@H]12	False
CC(=O)Nc1ccc(C(=O)Nc2ccccc2N)cc1	False

Exam item: For `C=C(C)C(=O)O[C@H]1[C@H]2C(=C)C(=O)O[C@@H]2C[C@@H](C)/C=C\C(=O)[C@](C)(O)[C@@H]1OC(C)=O` , which call appears in the assay record?
Marked response: False

Exam item: Moving on to C=C1[C@@H](C2=CC(=O)OC2)CC[C@@]2(O)[C@@H]1CC1[C@H]2CC[C@@H]2C[C@@H](O[C@H]3O[C@@H](C)[C@@H](O[C@@H]4O[C@H](CO[C@@H]5O[C@H](CO)[C@@H](O)[C@H](O)[C@H]5O)[C@@H](O)[C@H](O)[C@H]4O)[C@H](OC)[C@H]3O)CC[C@]12C (some centres undefined)
Marked response: False

Exam item: Moving on to c1nc(NCC2CCOC2)c2cc(-c3ccc4c(c3)OCO4)ccc2n1 (centres undefined)
Marked response: False

Exam item: Moving on to `CCc1c(C(=O)NNC(=O)[C@@H](O)c2cc(F)cc(F)c2)ccc(O)c1C`
Marked response: False

Exam item: Moving on to `Cn1cc(-c2cc(Oc3cc(F)c(NC(=O)C4(C(=O)Nc5ccccc5)CC4)cc3F)ccn2)cn1`
Marked response: False

Exam item: Moving on to `S=c1ssc2c1CCC2`
Marked response: True

Exam item: Moving on to `OCCn1cc(-c2ccc3c(c2)CC/C3=N\O)c(-c2ccncc2)n1`
Marked response: False

Exam item: Moving on to `O=C(c1ccc(-c2ccc(Cl)cc2)o1)N(Cc1ccccn1)c1ccc(N2CCNCC2)cc1`
Marked response: False

Exam item: Moving on to `Cc1ccc(NS(=O)(=O)c2cc3c(cc2N[C@@H](C)CO)NC(=O)CC3)cc1Cl`
Marked response: False

Exam item: Moving on to `C#Cc1cccc(Nc2ncnc3cc(OC)c(OC)cc23)c1`
Marked response: False

Exam item: Moving on to `COCc1c(-c2ccc(NC(=O)Nc3cc(C(F)(F)F)ccc3F)c(F)c2)c2c(N)ncnn2c1CN1CCOCC1`
Marked response: False

Exam item: Moving on to `Clc1cc(Cl)c2c(c1)N=C1CCCCCN1C2`
Marked response: False

Exam item: Moving on to `Oc1cccc(Nc2ccnc3cc(-c4cccc(CN5CCOCC5)c4)sc23)c1`
Marked response: False

* * *

System: TAB109
Experiment: qHTS profiling for inhibitors of Plasmodium falciparum proliferation (AID 504749); note: nearly all actives have a fitted effect of over 60% in size; note: potency is the fitted concentration of half-maximal effect
Settings: P. falciparum in erythrocytes, SYBR Green DNA, 72 h; series mostly up to 28.7 µM
Method: NIH National Institute of Allergy and Infectious Diseases [NIAID] NIH Chemical Genomics Center [NCGC] […] Because mature erythrocytes lack DNA, only Plasmodium-derived DNA is detected. NCGC Assay Protocol Summary: The SYBR Green viability assay was adapted from a method described previously (Plouffe et al., 2008). […] The following morning, fluorescence intensity at 485(14) nm excitation and 535(25) nm emission wavelengths was measured on an EnVision (Perkin Elmer) plate reader. […]
Records with an inconclusive call do not appear. Calls of active or inactive are those of the source. The call rests on the fitted dose curve; in most records, active means well fitted inhibition curve with a large enough effect; inconclusive means small, poorly fitted or top-dose-only effect; inactive means flat fitted curve, though single readings scatter.
Property Measured: Potency

C[C@@H](C(=O)O)c1ccc(-c2ccccc2)c(F)c1	inactive
CC(C)C[C@@H](NC(=O)[C@H](Cc1ccccc1)NC(=O)c1cnccn1)B(O)O	35.5 nM (active)
COC(=O)[C@@H]1[C@@H]2C[C@H]3c4[nH]c5ccccc5c4CCN3C[C@@H]2CC[C@@H]1O	inactive
CC(C)(O)c1ccccc1CC[C@H](SCC1(CC(=O)O)CC1)c1cccc(/C=C/c2ccc3ccc(Cl)cc3n2)c1	inactive

* * *

experiment: Primary qHTS for inhibitors of nuclear receptor binding SET domain protein 2 (NSD2) in an RCH-ACV wild type WT cells (2C) (AID 1645877); conditions: RCH-ACV (leukaemia line) NSD2 WT (2C) viability, CellTiter-Glo, 72 h; series mostly up to 44.9 µM; note: nearly all actives have a fitted effect of over 70% in size
Records with an inconclusive call do not appear. Active and inactive are the calls of the source. Calls follow the shape of the dose curve; as a rule, active = well fitted inhibition curve with a large enough effect; inconclusive = small, poorly fitted or top-dose-only effect; inactive = no such curve, though single readings can be large or run the other way.
Return exactly one item of Y for active, N for inactive

CC1CCCC(SCC(O)C(=O)O)CC(=O)c2c(O)cc(O)cc2CC(=O)O1 (configuration not stated)	Y
O=C(NCc1ccc(Oc2ccccc2)cc1)c1nc(-c2cc(Br)c(O)c(Br)c2)no1	Y
CN(C)CCCNc1c2ccccc2nc2c1[nH]c1ccccc12	Y
CCOC(=O)CCC(=O)O[C@H]1[C@H](O[C@@H]2[C@@H](C)[C@H](O[C@H]3C[C@@](C)(OC)[C@@H](O)[C@H](C)O3)[C@@H](C)C(=O)O[C@H](CC)[C@@](C)(O)[C@H](O)[C@@H](C)C(=O)[C@H](C)CC2(C)O)O[C@H](C)C[C@@H]1N(C)C (some centres not stated)	N
C=C(C(=O)O)C1CC2=C(C)C(=O)CC2C(C)CC1O (configuration not stated)	Y
CN(CC(=O)N(Cc1ccc(C2CCCCC2)cc1)c1ccc(C(=O)O)cc1)S(=O)(=O)c1c(F)c(F)c(F)c(F)c1F	Y
O=C(O)c1ccc2c3c1cccc3c(=O)n1c3ccccc3nc21	N
O=C1NC(=O)/C(=C\c2ccc3nccc(-c4ccncc4)c3c2)S1	Y

Exam item: For `COc1cc(-c2cc(-c3ccc(N4CCNCC4)cc3)cnc2C)cc(OC)c1OC` , which call appears in the assay record?
Marked response: Y

Exam item: Moving on to `Cn1cc(-c2cnc3ccc4ccc(CS(=O)(=O)NCc5ccccn5)cc4c(=O)c3c2)cn1`
Marked response: Y

Exam item: Moving on to CC1(C)CC[C@]2(C(=O)OC3OC(CO)C(O)C(O)C3O)CC[C@]3(C)C(=CCC4[C@@]5(C)CC[C@H](OC6OC(C(=O)O)C(O)C(O)C6O)C(CO)(CO)C5CC[C@]43C)[C@@H]2C1 (some centres not stated)
Marked response: Y

Exam item: Moving on to `C=C1C(=O)O[C@@H]2[C@H]1[C@H](O)C[C@]1(C)[C@@H](O)CC=C(C)[C@@H]21`
Marked response: Y
